molecular target: PDGFR (Homo sapiens, UniProt P09619); test: PDGF-induced BrdU incorporation assay; format: cell-based; design: expressed in transfected cells; host or cells: 3T3; conditions: Table 7; 3T3 cells expressing human PDGF-R, PDGF 3.8 nM; read-out: BrdU DNA syn. PDGFr IC50
Sequence (P09619 33-1106): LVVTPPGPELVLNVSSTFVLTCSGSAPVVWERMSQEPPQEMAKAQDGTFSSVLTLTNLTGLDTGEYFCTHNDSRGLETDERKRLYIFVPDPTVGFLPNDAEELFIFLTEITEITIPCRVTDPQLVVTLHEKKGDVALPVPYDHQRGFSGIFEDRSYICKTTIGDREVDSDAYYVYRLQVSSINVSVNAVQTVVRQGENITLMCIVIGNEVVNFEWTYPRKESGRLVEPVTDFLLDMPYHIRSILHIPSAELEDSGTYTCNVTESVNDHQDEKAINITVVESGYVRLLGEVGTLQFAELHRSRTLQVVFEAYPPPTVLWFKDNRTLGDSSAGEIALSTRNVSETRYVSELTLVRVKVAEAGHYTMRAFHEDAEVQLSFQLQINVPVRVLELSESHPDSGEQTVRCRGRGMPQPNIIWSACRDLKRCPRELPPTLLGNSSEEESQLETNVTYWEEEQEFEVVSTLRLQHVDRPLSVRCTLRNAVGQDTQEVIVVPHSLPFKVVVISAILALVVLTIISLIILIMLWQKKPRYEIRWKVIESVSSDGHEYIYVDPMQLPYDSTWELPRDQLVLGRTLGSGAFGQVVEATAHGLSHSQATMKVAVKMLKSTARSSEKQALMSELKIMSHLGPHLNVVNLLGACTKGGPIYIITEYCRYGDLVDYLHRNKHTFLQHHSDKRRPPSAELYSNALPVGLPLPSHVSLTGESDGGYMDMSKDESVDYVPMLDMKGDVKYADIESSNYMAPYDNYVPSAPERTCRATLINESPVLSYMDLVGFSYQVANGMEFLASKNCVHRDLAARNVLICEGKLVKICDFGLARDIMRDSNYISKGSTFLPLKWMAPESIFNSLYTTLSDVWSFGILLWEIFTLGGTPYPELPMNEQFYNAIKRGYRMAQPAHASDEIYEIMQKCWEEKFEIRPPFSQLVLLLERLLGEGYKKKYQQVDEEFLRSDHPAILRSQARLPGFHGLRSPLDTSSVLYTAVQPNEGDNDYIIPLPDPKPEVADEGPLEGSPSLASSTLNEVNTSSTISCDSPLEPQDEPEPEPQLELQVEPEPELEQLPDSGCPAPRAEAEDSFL
Consider the following compounds; for each one, report its log10 IC50.
For clarity, the numbers are log10 values of IC50 expressed in µM.

Query: Entry Cc1[nH]c(/C=C2\C(=O)Nc3cccc(CCOc4ccc(C(C)C)cc4)c32)c(C)c1CCC(=O)O [IN-024] has what log10 IC50?
Result: 1.70

Query: Entry O=C1Nc2cccc(CCO)c2/C1=C/c1ccccn1 [IN-005] has what log10 IC50?
Result: 0.23

Query: Entry COc1ccc(/C=C2\C(=O)Nc3cccc(CCO)c32)cc1-c1cccs1 [IN-008] has what log10 IC50?
Result: 0.74

Query: Entry Cc1[nH]c(/C=C2\C(=O)Nc3cccc(CCOc4cccc(C(C)C)c4)c32)c(C)c1CCCN(C)C [IN-023] has what log10 IC50?
Result: 1.37

Query: Entry O=C1Nc2cccc(CCO)c2/C1=C\c1ccc(Br)cc1 [IN-004] has what log10 IC50?
Result: 0.52

Query: Entry Cc1cccc(/C=C2\C(=O)Nc3cccc(CCO)c32)n1 [IN-006] has what log10 IC50?
Result: 0.66

Query: Entry O=C1Cc2c(CCOc3cccc(-c4ccccc4)c3)cccc2N1 [IN-003] has what log10 IC50?
Result: 1.34

Query: Entry CC(C)c1cccc(OCCc2cccc3c2CC(=O)N3)c1 [IN-001] has what log10 IC50?
Result: 1.55

Query: Entry CC(C)c1ccccc1OCCc1cccc2c1CC(=O)N2 [IN-002] has what log10 IC50?
Result: 1.57

----------
molecular target: PDGFR (Homo sapiens, UniProt P09619); test: Biochemical PDGFR assay (ELISA); set-up: expressed in transfected cells; host or cells: NIH 3T3; details: Table 5, in vitro kinase activity, read-out: PDGFr biochem IC50
pIC50: −log10 of the molar value.
Consider the following molecules; for each one, report its pIC50.

Query: Entry O=C(Nc1ccc2c(c1)NC(=O)C2Cc1cc(Cl)cc(Cl)c1O)C1CCCC1 (stereo not shown) has what pIC50?
Result: < 4.00

Query: Entry COc1cc(C)c(CC2C(=O)Nc3ccccc32)cc1C(C)C (stereo not shown) has what pIC50?
Result: < 4.00

Query: Entry Cc1[nH]c(CC2C(=O)Nc3ccc(Cl)cc32)c(C)c1CCCN(C)C (stereo not shown) has what pIC50?
Result: 6.09

Query: Entry COc1ccc(-c2cc(CC3C(=O)Nc4ccccc43)c(O)cc2OC)cc1 (stereo not shown) has what pIC50?
Result: < 4.00

Query: Entry Cc1[nH]c(CC2C(=O)Nc3ccc(Br)cc32)c(C)c1CCCN(C)C (stereo not shown) has what pIC50?
Result: 6.60

Query: Entry O=C1Nc2cccc(CCO)c2C1Cc1ccccc1 (stereo not shown) has what pIC50?
Result: < 4.00

Query: Entry COc1ccc2c(c1)NC(=O)C2Cc1ccc(OC)c(-c2ccsc2)c1 (stereo not shown) has what pIC50?
Result: < 4.00

Query: Entry O=C1Nc2ccc(F)cc2C1Cc1ccc(O)c(C2CCCC2)c1 (stereo not shown) has what pIC50?
Result: < 4.00

Query: Entry COc1ccc(CC2C(=O)Nc3ccc(F)cc32)cc1C1CCCC1 (stereo not shown) has what pIC50?
Result: < 4.00

Query: Entry O=C(Nc1ccc2c(c1)NC(=O)C2Cc1cc(Cl)ccc1O)C1CCCC1 (stereo not shown) has what pIC50?
Result: < 4.00
